pIC50: −log10 of the molar value.
Several publications report pIC50 on Insulin receptor (Homo sapiens); those values are gathered here.

Request: Query (molecule): `CCOc1ccc(/C=C2/SC(=O)NC2=O)cc1OC` ; field requested: pIC50
Response: < 4.00

Request: Param item = `CCOc1ccc(Nc2ncc3c(n2)-c2cnccc2NC(=O)C3)cc1` ; retrieve measured pIC50.
Response: < 4.00

Request: What does the record list as pIC50 for `O=C1Cc2cnc(Nc3ccc(Br)cc3)nc2-c2ccccc2N1` ?
Response: < 4.00

Request: Consider the molecule `Clc1cccc(Nc2cncc(-c3cncc(NCCCc4cccnc4)c3)n2)c1` and give its measured pIC50.
Response: < 5.00

Request: # input molecule: `COc1ccc(Nc2ncc3c(n2)-c2ncccc2NC(=O)C3)cc1` ; wanted: its pIC50
Response: < 4.00

Request: Name the recorded pIC50 for `CCOC(=O)/C=C/c1c(Oc2ccc(Cl)cc2OC)nc[nH]c1=O` .
Response: < 4.40

Request: Could you share which pIC50 value was measured for `CN1CCN(c2ccc(Nc3ncc4ccc(-c5ccccc5S(C)(=O)=O)n4n3)cc2)CC1` ?
Response: < 5.70

Request: Request the reported pIC50 associated with `CCOc1ccc(Nc2ncc3c(n2)-c2ccc(OC)cc2NC(=O)C3)cc1`
Response: < 4.00
